Provide the reported Assay (%) of each item.
Assay overview: Stability of salt forms under accelerated conditions of heat and humidity
Type: physicochemical
Condition summary: 40° C./75% RH, 14 D
Enter your answer as a number in %; do not include the unit.

Would you kindly share the measured Assay (%) for CC[C@H](C(=O)N1CCCC[C@H]1C(=O)O[C@H](CCc1ccc(OC)c(OC)c1)c1cccc(OCCN(C)CCN(C)CCOc2cccc([C@@H](CCc3ccc(OC)c(OC)c3)OC(=O)[C@@H]3CCCCN3C(=O)[C@@H](CC)c3cc(OC)c(OC)c(OC)c3)c2)c1)c1cc(OC)c(OC)c(OC)c1.O=C(O)/C=C/C(=O)O [Fumarate] ? 96.8

Field request: Assay (%) | item: CC[C@H](C(=O)N1CCCC[C@H]1C(=O)O[C@H](CCc1ccc(OC)c(OC)c1)c1cccc(OCCN(C)CCN(C)CCOc2cccc([C@@H](CCc3ccc(OC)c(OC)c3)OC(=O)[C@@H]3CCCCN3C(=O)[C@@H](CC)c3cc(OC)c(OC)c(OC)c3)c2)c1)c1cc(OC)c(OC)c(OC)c1.Cl [Compound A.2] 96.9

Fill blank: measured Assay (%) of the compound CC[C@H](C(=O)N1CCCC[C@H]1C(=O)O[C@H](CCc1ccc(OC)c(OC)c1)c1cccc(OCCN(C)CCN(C)CCOc2cccc([C@@H](CCc3ccc(OC)c(OC)c3)OC(=O)[C@@H]3CCCCN3C(=O)[C@@H](CC)c3cc(OC)c(OC)c(OC)c3)c2)c1)c1cc(OC)c(OC)c(OC)c1.O=S(=O)(O)c1ccccc1 is ____. 92.2

Would you kindly share the measured Assay (%) for CC[C@H](C(=O)N1CCCC[C@H]1C(=O)O[C@H](CCc1ccc(OC)c(OC)c1)c1cccc(OCCN(C)CCN(C)CCOc2cccc([C@@H](CCc3ccc(OC)c(OC)c3)OC(=O)[C@@H]3CCCCN3C(=O)[C@@H](CC)c3cc(OC)c(OC)c(OC)c3)c2)c1)c1cc(OC)c(OC)c(OC)c1.O=P(O)(O)O [Compound A.1] ? 95.9

Param item = CC[C@H](C(=O)N1CCCC[C@H]1C(=O)O[C@H](CCc1ccc(OC)c(OC)c1)c1cccc(OCCN(C)CCN(C)CCOc2cccc([C@@H](CCc3ccc(OC)c(OC)c3)OC(=O)[C@@H]3CCCCN3C(=O)[C@@H](CC)c3cc(OC)c(OC)c(OC)c3)c2)c1)c1cc(OC)c(OC)c(OC)c1.O=S(=O)(O)O [Sulphate] ; retrieve measured Assay (%). 95.6
